Hey, just so you know, these numbers are from paper PMC8400246.

# Tested on: 100-bp DNA ladder
# PROTOCOL NOTES: DNA binding assay (electrophoretic mobility shift)
# CONDITION: 1 μg analog with 0.2 μg 100-bp DNA ladder, 37 °C, 60 min, 1.8% agarose gel with EtBr
# Experimental: To evaluate the binding ability of the AOD analogs to intracellular components, a DNA binding assay was performed as previously described with minor modifications. The DNA-binding ability of the AOD analogs was assessed through observation of the inhibition of migration of DNA bands through agarose gels. […]
Positions of bridges follow the written chain, without caps; N, C: chain ends. Residues, ends and D or L forms follow the SMILES beside them.
VALUE KIND: electrophoretic mobility of the DNA (DNA-binding ability)

COMPOUND	RECORDED MEASUREMENT
CC(C)C[C@@H]1NC(=O)[C@H](CCCNC(=N)N)NC(=O)[C@H](CC(C)C)NC(=O)[C@H](CCCNC(=N)N)NC(=O)[C@H](Cc2c[nH]c3ccccc23)NC(=O)[C@H](CCCNC(=N)N)NC(=O)[C@@H](N)CSSC[C@@H](C(=O)O)NC(=O)[C@H](CCCNC(=N)N)NC1=O [Analog A2] (H-CRWRLRLRC-OH; disulfide 1-9)	inhibited
N=C(N)NCCC[C@@H]1NC(=O)[C@H](CCCNC(=N)N)NC(=O)[C@H](CCCNC(=N)N)NC(=O)[C@H](CCCNC(=N)N)NC(=O)[C@H](Cc2c[nH]c3ccccc23)NC(=O)[C@H](CCCNC(=N)N)NC(=O)[C@H](CCCNC(=N)N)NC(=O)[C@@H](N)CSSC[C@@H](C(=O)O)NC1=O [Analog A3] (H-CRRWRRRRC-OH; disulfide 1-9)	inhibited
N=C(N)NCCC[C@@H]1NC(=O)[C@H](CCCNC(=N)N)NC(=O)[C@H](Cc2c[nH]c3ccccc23)NC(=O)CNC(=O)[C@H](Cc2c[nH]c3ccccc23)NC(=O)[C@H](CCCNC(=N)N)NC(=O)[C@H](CCCNC(=N)N)NC(=O)[C@@H](N)CSSC[C@@H](C(N)=O)NC1=O [Analog A4] (H-CRRWGWRRC-NH2; disulfide 1-9)	inhibited
CC(=O)N[C@H]1CSSC[C@@H](C(N)=O)NC(=O)[C@H](CCCNC(=N)N)NC(=O)[C@H](CC(C)C)NC(=O)[C@H](CCCNC(=N)N)NC(=O)[C@H](CCCNC(=N)N)NC(=O)[C@H](Cc2c[nH]c3ccccc23)NC(=O)CNC(=O)[C@H](C)NC1=O [Analog A1] (Ac-CAGWRRLRC-NH2; disulfide 1-9)	inhibited

----------
Reported Minimal Effective Concentration values follow for various compounds
# Test system: S. epidermidis KCTC1917
# PROTOCOL NOTES: Ultrasensitive radial diffusion assay (URDA), MEC
# Format: cell-based, Staphylococcus epidermidis
# CONDITION: S. epidermidis KCTC1917, Gram +, pH 6.6, 37 °C, triplicate, averaged
Positions of bridges follow the written chain, without caps; N, C: chain ends. Residues, ends and D or L forms follow the SMILES beside them.

COMPOUND	MEASUREMENT TARGET	Minimal Effective Concentration, µg/mL
N=C(N)NCCC[C@@H]1NC(=O)[C@H](CCCNC(=N)N)NC(=O)[C@H](CCCNC(=N)N)NC(=O)[C@H](CCCNC(=N)N)NC(=O)[C@H](Cc2c[nH]c3ccccc23)NC(=O)[C@H](CCCNC(=N)N)NC(=O)[C@H](CCCNC(=N)N)NC(=O)[C@@H](N)CSSC[C@@H](C(=O)O)NC1=O [Analog A3] (H-CRRWRRRRC-OH; disulfide 1-9)	S. epidermidis KCTC1917	4.2
N=C(N)NCCC[C@@H]1NC(=O)[C@H](CCCNC(=N)N)NC(=O)[C@H](Cc2c[nH]c3ccccc23)NC(=O)CNC(=O)[C@H](Cc2c[nH]c3ccccc23)NC(=O)[C@H](CCCNC(=N)N)NC(=O)[C@H](CCCNC(=N)N)NC(=O)[C@@H](N)CSSC[C@@H](C(N)=O)NC1=O [Analog A4] (H-CRRWGWRRC-NH2; disulfide 1-9)	S. epidermidis KCTC1917	15.8
